Hey, just so you know, these numbers are from ChEMBL document CHEMBL1201862.

# Test system: SR
# experimentalProtocol: NCI tumour cell line growth inhibition, 48 h
Activity calls are given as the source filed them. Rule as the data show it: active = GI50 up to about 1.1 µM and inactive = higher.
reportedProperty: GI50

>>> valueobserved("COC1CC(OC2CCC3(C)C(=CCC4C3C(OC(C)=O)C(OC(=O)CC(C)C)C3(C)C(C(C)=O)CCC43O)C2)OC(C)C1OC1CC(OC)C(OC2CC(OC)C(OC3OC(C)C(O)C(OC)C3O)C(C)O2)C(C)O1 (stereo not drawn)")
"31.5 µM (inactive)"
>>> valueobserved("Nc1cc2[nH]cnc2c(=O)[nH]1")
"9.1 µM (inactive)"

Here's the next entry for you.
Problem: Find the recorded GI50 belonging to `O[C@H]1[C@H](O)[C@@H](Cn2nnc(-c3ccccc3)c2-c2ccccc2)OCO[C@@H]1Cn1nnc(-c2ccccc2)c1-c1ccccc1` and report it.
Solution: 2.04 µM (inactive)

###

# System: OVCAR-3
# experimentalProtocol: NCI tumour cell line growth inhibition, 48 h
Active and inactive are the calls of the source. Rule as the data show it: active = GI50 up to about 1.1 µM and inactive = higher.
reportedProperty: GI50

>>> valueobserved("CC(=O)O[C@]1(C)CCC2C(C)C(=O)OC2C2C(C)[C@@H](O)CC21 (stereo not given in full)")
"12.9 µM (inactive)"
>>> valueobserved("CCc1nc(N)nc(C(=O)NCCNC(=O)c2nc(N)nc(CC)c2C)c1C")
"> 100 µM (inactive)"

Problem: Form: Entry = C=C1CCC2C(C)(CO)C(O)CCC2(C)C1CC(O)C1=CCOC1=O (stereo not given) | System = OVCAR-3 | GI50 = ____
Solution: 26.5 µM (inactive)

Problem: Quick check: GI50 on OVCAR-3, item `COc1ccccc1CCN1CCN(CCCc2ccccc2)CC1` ?
Solution: > 100 µM (inactive)

Problem: Tell me reported GI50 for Cn1cc2ccccc2c1-c1nc(F)nc(Oc2ccc3c(c2)CC[C@@H]2C3CC[C@]3(C)C(O)CCC23)n1 (stereo not given in full) , tested with OVCAR-3.
Solution: 17.7 µM (inactive)

###

# System: SK-MEL-2
# experimentalProtocol: NCI tumour cell line growth inhibition, 48 h
Active and inactive are the calls of the source. No stated cut-off is given here; in the data, active = GI50 up to about 1.1 µM and inactive = higher.
Listed next: entries and their corresponding GI50.

>>> valueobserved("c1ccc2c(c1)SC1=C(SC(=C3SC4=C(S3)Sc3ccccc3S4)S1)S2")
"> 100 µM (inactive)"
>>> valueobserved("Nn1c(=O)[nH]c2ncn(Cc3ccccc3)c2c1=O")
"> 100 µM (inactive)"
>>> valueobserved("COc1ccc(CC2C3=C(CCN2C(=O)C2CCC2)CC2(CC3)OCCO2)cc1O (centres undefined)")
"49.3 µM (inactive)"

Please turn your attention to the following entry.
Problem: What measured GI50 goes with CCC(O)C1Cc2c(C)cc3c(c2O1)C(=O)c1ccccc1C3=O (centres undefined) ?
Solution: 44.4 µM (inactive)

###

# System: SF-268
# experimentalProtocol: NCI tumour cell line growth inhibition, 48 h
Calls of active or inactive are those of the source. Rule as the data show it: active = GI50 up to about 1.1 µM and inactive = higher.
reportedProperty: GI50

Answered cases to consult:
>>> valueobserved("CCOC(=O)c1c(-c2ccccc2)nc2c(OC)nccn12")
"> 100 µM (inactive)"
>>> valueobserved("COP(=O)(C(/C=C/c1ccccc1)OC(C)=O)[C@@H]1CCCC[C@H]1N(CC(C)(C)C)C(C)=O (some centres not stated)")
"16.6 µM (inactive)"
>>> valueobserved("CCc1nc(N)nc(C(=O)NCCNC(=O)c2nc(N)nc(CC)c2C)c1C")
"> 100 µM (inactive)"

Problem: Item under review: `O=c1[nH]c(=O)n(C/C=C/CBr)nc1Br` . Reported GI50?
Solution: 14.1 µM (inactive)

Problem: Item `O=C(O)c1cc2ccccc2c(/N=N\c2cc(C(F)(F)F)ccc2Cl)c1O` has what recorded GI50?
Solution: > 100 µM (inactive)

Problem: Look at this compound and give its reported GI50. `C=CCN1CCC2(CC1)NC(=O)c1ccccc1O2`
Solution: > 100 µM (inactive)

Problem: Which measured GI50 value corresponds to `O=S(=O)(c1ccccc1)n1cc(C[P+](c2ccccc2)(c2ccccc2)c2ccccc2)c2ccccc21` ?
Solution: 5.66 µM (inactive)

Problem: Entry `C/C(=N/NS(=O)(=O)c1ccc([N+](=O)[O-])cc1)c1cccc[n+]1[O-]` has what GI50?
Solution: > 100 µM (inactive)

Problem: Any idea what its GI50 is? The compound is `O=[N+]([O-])/C=C/c1cc(Cl)c(/C=C/[N+](=O)[O-])cc1Cl`
Solution: 2.66 µM (inactive)

Problem: Tell me the measured GI50 of `O=C(O)[C@H](NS(=O)(=O)c1ccc([N+](=O)[O-])cc1)c1ccccc1` , please.
Solution: > 100 µM (inactive)

Problem: I would be grateful if you could share the reported GI50 for `COc1ccccc1CCN1CCN(CCCc2ccccc2)CC1` .
Solution: > 100 µM (inactive)

Problem: // query GI50 value for entry `CN1CCN(C(=S)N(C(=O)c2ccc(Cl)cc2)c2ccccc2)CC1`
Solution: > 100 µM (inactive)
